These entries and their values trace back to patent US20070078092A1.

- Tested System: protein kinase B (PKB)
- Experiment Summary: cell-based or functional assay
Square brackets hold non-standard residues; d marks the D form. * marks the point of attachment. Cholesteryloxycarbonyl = CC(C)CCC[C@@H](C)[C@H]1CC[C@H]2[C@@H]3CC=C4C[C@@H](OC(=O)*)CC[C@]4(C)[C@H]3CC[C@]12C; hLeu = CC(C)CC[C@H](N)C(=O)O; Nva = CCC[C@H](N)C(=O)O; Dap = NC[C@H](N)C(=O)O
Measured Quantity: IC50, in vitro kinase assay PKB (nM)
The response must be a number in nM with no trailing unit.

Cholesteryloxycarbonyl-GRPR[Nva]Y[Dap][hLeu]-NH2 (SMILES CCC[C@H](NC(=O)[C@H](CCCNC(=N)N)NC(=O)[C@@H]1CCCN1C(=O)[C@H](CCCNC(=N)N)NC(=O)CNC(=O)O[C@H]1CC[C@@]2(C)C(=CC[C@H]3[C@@H]4CC[C@H]([C@H](C)CCCC(C)C)[C@@]4(C)CC[C@@H]32)C1)C(=O)N[C@@H](Cc1ccc(O)cc1)C(=O)N[C@@H](CN)C(=O)N[C@@H](CCC(C)C)C(N)=O) [PTR 6294]    1000

# ---- query binder ----
Please give the measured IC50, in vitro kinase assay PKB for this binder: Cholesteryloxycarbonyl-RPR[Nva]Y[Dap]-OH (SMILES CCC[C@H](NC(=O)[C@H](CCCNC(=N)N)NC(=O)[C@@H]1CCCN1C(=O)[C@H](CCCNC(=N)N)NC(=O)O[C@H]1CC[C@@]2(C)C(=CC[C@H]3[C@@H]4CC[C@H]([C@H](C)CCCC(C)C)[C@@]4(C)CC[C@@H]32)C1)C(=O)N[C@@H](Cc1ccc(O)cc1)C(=O)N[C@@H](CN)C(=O)O) [PTR 6390] 2000
